- Tested on: P12-Ichikawa
- Test name: cell viability relative to DMSO control; higher = less cytotoxic
- Settings: RPMI 5 mM glucose + 10% dialyzed FBS; 48 h; 15.4 µM
Measured quantity: cell viability (%)

> print(dat)
                                 cpd.smiles  subject.of.test  value
1          O=P(O)(O)C(O)(Cn1ccnc1)P(=O)(O)O     P12-Ichikawa    122
2  C[C@@H]1CCO[C@H]2CN\3/C=C(/C(=O)NCC4=C(F)C=C(F)C=C4)C(=O)\C(=C3C(=O)N12)O     P12-Ichikawa   86.5
3  CC(=O)Oc1ccccc1C(=O)Nc1ncc([N+](=O)[O-])s1     P12-Ichikawa   85.2
4  Cc1csc(-c2nnc(Nc3ccc(Oc4ncccc4-c4ccnc(N)n4)cc3)c3ccccc23)c1     P12-Ichikawa   39.6
